Values were extracted from the RNAGym collection of RNA variant scans (doi:10.7554/elife.90254).

B1: LINE1-full (parent)
chain: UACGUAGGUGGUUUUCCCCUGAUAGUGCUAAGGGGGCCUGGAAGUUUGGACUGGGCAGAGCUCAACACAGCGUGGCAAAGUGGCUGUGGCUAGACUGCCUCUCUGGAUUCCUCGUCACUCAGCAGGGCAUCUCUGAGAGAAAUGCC

- Variants of: B1
- Measurement Description: self-cleavage, relative activity (ratio to wild type); higher = more cleavage; in vitro, sequencing; the parent is a self-cleaving ribozyme
Entries and their self-cleavage values follow.

- Changes: "U115C A140G"
  self-cleavage: 1.58
- Changes: "U115A"
  self-cleavage: 1.36
- Changes: "A2G A24G"
  self-cleavage: 0.71
